The origin of these recorded values is PubChem BioAssay (NCI).

test system: RXF 393 renal; test: NCI tumour cell line growth inhibition, 48 h; in the data active = GI50 below about 0.43 µM; inactive = the rest
Classes used: yes for active, no for inactive

| compound | group |
| --- | --- |
| CN(Cc1ccccc1)c1ccc(CO)c(Cl)c1 | no |
| C#Cc1c(/C=C/C(=O)OCC)ccc2ccccc12 | no |
| O=c1cc(-c2cccc3c2Sc2ccccc2S3)oc(N2CCOCC2)c1 | no |
| O=C(NCCCO)c1cc(Cl)ccc1O | no |
| O=C(c1ccccc1)C(CN1CCCCC1)c1ccccc1 (stereo not given) | no |
| CCN(CC)CC(O)CNc1c2ccc([N+](=O)[O-])cc2nc2cc(OC)c(OC)cc12 (stereo not given) | no |
| CC(C)=CCC[C@](C)(O)[C@H]1CC[C@]2(C)[C@@H]1CC[C@@H]1[C@@]3(C)CC/C(=N/O)C(C)(C)[C@@H]3CC[C@]12C | no |
| COc1cc(NCCCN=C(N)NC(N)=NC(C)C)c2ncccc2c1 | no |
| Cc1nc2ccccc2c(/C=C/c2ccc(Cl)cc2)c1C(=O)/C=C/c1ccc(C(F)(F)F)cc1 | yes |
| Cc1cc(N2CCOCC2)nc(N[C@@H]2CCC[C@H](Nc3ccnc4cc(Cl)ccc34)C2)n1 | no |

###

Each item that follows carries a reported TGI.
tested on: KM20L2 colon; assay: NCI tumour cell line growth inhibition, 48 h

| compound | display.unit | readout.relation | TGI |
| --- | --- | --- | --- |
| Cc1ccc(S(=O)(=O)NC2(C=O)CCCC3CCCCC32)cc1 (configuration not stated) | µM | > | 100 |
| Cc1cccc(C(C)(C)C)c1NC(=O)CC1C(=O)Nc2ccccc2S1(=O)=O (configuration not stated) | µM | = | 22.3 |
| COC(=O)c1ccc(N=NN(C)COc2ccc(Br)cc2)cc1 | µM | > | 100 |
| Cn1cnc([N+](=O)[O-])c1Sc1nccn1-c1cccc2ccccc12 | µM | > | 100 |
| O=C(CCN1CCN(c2ccccc2)CC1)N1CCc2c([nH]c3ccccc23)C1c1cccnc1 (configuration not stated) | µM | = | 29.5 |
| CC(Nc1ccc(S(=O)(=O)N=C(N)N)cc1)c1c2ccccc2nc2ccccc12 (configuration not stated) | µM | > | 100 |
| CC(=O)C1C(c2ccc(N(C)C)cc2)c2cc3c(cc2OC1(C)O)OCO3 (configuration not stated) | µM | = | 26.6 |
| Cc1cc(/C=C/c2cc[n+](C)c3ccccc23)c(O)c2ncccc12 | µM | = | 20 |
| C[C@]12CC/C(=N\O)C=C1CC[C@@H]1C2CC[C@@]2(C)C1CC[C@@H]2OC1CCCCO1 (some centres not stated) | µM | = | 30.4 |
| O=C(c1ccccc1)C1OC12C(=O)Nc1c(Cl)cc(Cl)cc12 (configuration not stated) | µM | > | 100 |
| CC(C)N=C(N)NC#N | µM | > | 100 |
| O=C(O)C1(C(=O)O)CCC1.[NH2-].[NH2-].[Pt+2] | µM | > | 235 |

###

system: OVCAR-4 ovarian; experiment: NCI tumour cell line growth inhibition, 48 h
Listing of recorded TGI by entry.

| compound | readout.relation | TGI [µM] |
| --- | --- | --- |
| CCOC(=O)N1CCC(=O)C(CNC23CC4CC(CC(C4)C2)C3)C1 (stereo not given) | = | 29 |
| C[C@@]12CCC[C@@](C)(C(=O)O)C1CC[C@]13C[C@@](O)(CO)[C@](O)(CCC12)C3 (stereo not given in full) | > | 100 |
| CN1C(=O)C2(C=CC(O)CC2)c2ccccc21 (stereo not given) | > | 100 |
| CC(C)=CC(Cc1ccccc1)S(=O)(=O)c1nc2ccccc2s1 (stereo not given) | = | 37.1 |
| CCOC(=O)C1c2[nH]c3ccccc3c2CCN1C(=O)c1ccc(OC)o1 (stereo not given) | > | 10 |

###

tested on: SN12C renal; experiment: NCI tumour cell line growth inhibition, 48 h
readout.type: TGI

| compound | observed.measurement |
| --- | --- |
| CC(C)=CCC[C@](C)(O)[C@H]1CC[C@]2(C)[C@@H]1CC[C@@H]1[C@@]3(C)CC/C(=N/O)C(C)(C)[C@@H]3CC[C@]12C | 35.2 µM |
| CS(=O)(=O)c1ccc(N=C/C=C/Nc2ccc(S(C)(=O)=O)cc2)cc1 | > 100 µM |
| CC(C)=CCC/C(C)=C/CC/C(C)=C/CC/C(C)=C/CC/C(C)=C/CC/C(C)=C/CC/C(C)=C/CC/C(C)=C/CC/C(C)=C/CO | > 100 µM |
| O=Nc1ccc(NO)c2ccccc12 | 11 µM |
| C[C@@]12CCC[C@@](C)(C(=O)O)C1CC[C@]13C[C@@](O)(CO)[C@](O)(CCC12)C3 (some centres undefined) | > 100 µM |
| CCC(=C/[C@H](C)C/C=C/C(C)=C/[C@@H](C)C(=O)[C@@H](C)[C@H](O)[C@@H](C)CC)/C=C/[C@@H]1OC(=O)C=C[C@H]1C | 1.41 µM |
| COc1c2ccoc2c(OC)c2oc(=O)ccc12 | > 100 µM |
| CCC[CH2][Sn]1([CH2]CCC)[O]CC(CN(C)Cc2ccccc2)[O]1 (centres undefined) | 21.9 µM |
| COc1ccc(N2C(=O)C3c4[nH]c5ccc(Br)cc5c4C4CCC(C(C)(C)C)CC4C3C2=O)cc1 (centres undefined) | > 100 µM |
| CC(=O)OC[C@@H](COC(=O)/C=C/c1ccc(O)cc1)OC1OC(CO)C(O)C(O)C1O (some centres undefined) | > 100 µM |
| COC1CC(COCc2ccccc2)CC(OC)O1 (centres undefined) | > 100 µM |
| CCOC(=O)C1(C(=O)OCC)OC(C)=NC1(C(=O)OC)C(=O)OC | > 100 µM |
| S=C(Nc1ccc(-c2nc3ccccc3[nH]2)cc1)Nc1ccc(-c2nc3ccccc3[nH]2)cc1 | > 100 µM |
| CC12CCC3(OCCO3)C(OC(=O)c3ccccc3)=C1CCC21OCCO1 (centres undefined) | > 100 µM |
| CC(=O)OCC1OC(Nn2c(=O)[nH]c3ccccc3c2=O)C(OC(C)=O)C(OC(C)=O)C1OC(C)=O (centres undefined) | > 100 µM |
| O=C(NCCCO)c1cc(Cl)ccc1O | 11.7 µM |
| O=c1c(Br)cc2nc3ccccc3sc-2c1Br | > 100 µM |
| CC(=O)Nc1c(C)cc2c(nc3n2CCC3OC(C)=O)c1[N+](=O)[O-] (centres undefined) | > 100 µM |
| CCOc1ccc(N/C(=C(/C(Cl)=C(/Cl)N2CCCCC2)[N+](=O)[O-])n2nnc3ccccc32)cc1 | 41.9 µM |

###

system: HS 578T breast; experiment: NCI tumour cell line growth inhibition, 48 h
Classify as follows. Reported TGI greater than or equal to 4 µM: MET. Reported TGI below: NOT MET.

| compound | group |
| --- | --- |
| CC(=O)c1c(C)[nH]c(-c2nc3ccc(N4CCN(C)CC4)cc3[nH]2)c1-c1ccc(N(C)C)cc1 | MET |
| O=C1c2ccccc2-c2nnc3c(c21)-c1ccccc1C3 | MET |
| NCCCCCCCn1c2c(c3ccccc3c1=O)C(=O)c1ccccc1-2 | MET |
| CNC(=O)c1ccccc1Nc1nc(Nc2cc(OC)c(OC)c(OC)c2)ncc1Br | NOT MET |
| COc1ccc(Cc2nnc(Nc3ccc(Br)cc3)[nH]c2=O)cc1OC | MET |
| O=C1CSC(c2ccccc2[N+](=O)[O-])N1c1ccc(-c2ccc(-n3c(-c4ccccc4)nc4ccccc4c3=O)cc2)cc1 (centres undefined) | MET |
| COc1cccc(NC(=O)c2sc3nc(C)c(C(O)c4ccccc4)cc3c2N)c1 (centres undefined) | NOT MET |
| Cc1csc(/C=C/C(=O)c2nnn(-c3ccnc4c(C(F)(F)F)cccc34)c2C)c1 | MET |
| O=C(COc1cc(O)c2c(=O)cc(-c3ccccc3)oc2c1)Nc1ccccc1C(F)(F)F | MET |

###

tested on: BT-549 breast; test: NCI tumour cell line growth inhibition, 48 h; in the data active means GI50 below about 0.43 µM; inactive means the rest
Labels: YES for active, NO for inactive

| molecule | test.target | group |
| --- | --- | --- |
| COc1cc(NCCCN=C(N)NC(N)=NC(C)C)c2ncccc2c1 | BT-549 breast | NO |
| S=C(Nc1ccc(-c2nc3ccccc3[nH]2)cc1)Nc1ccc(-c2nc3ccccc3[nH]2)cc1 | BT-549 breast | NO |
| COc1cc(C2SCC(=O)N2c2ncc(C)s2)cc(OC)c1OC (configuration not stated) | BT-549 breast | NO |
| O=C(Cc1ccc(F)c(F)c1)Nc1cc(C2(C(F)(F)F)CC2)nn1Cc1ccccc1 | BT-549 breast | NO |
| CNC(=O)c1ccccc1Nc1nc(Nc2cc(OC)c(OC)c(OC)c2)ncc1Br | BT-549 breast | YES |
| O=C(Nc1ccncc1)C(=O)c1cn(S(=O)(=O)c2ccc(Cl)cc2)c2ccccc12 | BT-549 breast | NO |
| CCN(CC)c1ccc(C(O)C2=CC(=O)c3ccccc3C2=O)cc1 (configuration not stated) | BT-549 breast | NO |
| NCCCCCCCn1c2c(c3ccccc3c1=O)C(=O)c1ccccc1-2 | BT-549 breast | NO |
| CN(Cc1ccccc1)c1ccc(CO)c(Cl)c1 | BT-549 breast | NO |
| O=c1cc(-c2cccc3c2Sc2ccccc2S3)oc(N2CCOCC2)c1 | BT-549 breast | NO |
| C=CC(=O)Nc1cc(C)ccc1Nc1nc(Nc2cc(OC)ncc2C)ncc1C(F)(F)F | BT-549 breast | NO |
| C[C@@]12CCC[C@@](C)(C(=O)O)C1CC[C@]13C[C@@](O)(CO)[C@](O)(CCC12)C3 (some centres not stated) | BT-549 breast | NO |
